target: human alpha-thrombin (Homo sapiens, UniProt P00734); assay: Determination of inhibition constant Ki for thrombin (steady state velocities, Pefachrome t-PA); format: biochemical; details: Table 4; determined using human alphathrombin (footnote a); read-out: Ki
PARAMETER MEASURED: pKi
Scale note: pKi = -log10(concentration in M).

I'd like to know its pKi. The compound in question is CS(=O)(=O)CC[C@H](NS(=O)(=O)Cc1ccccc1)C(=O)N1CCC[C@H]1C(=O)N[C@H](C=O)CCCNC(=N)N [Example 27] 8.97

* * *

molecular target: human alpha-thrombin (Homo sapiens); assay: Determination of inhibition constant Ki for thrombin (steady state velocities, Pefachrome t-PA); assay type: biochemical; settings: Table 2; human alpha-thrombin 0.5 nM, steady state velocities over 40 minutes; read-out: Inhibitor Constants (Ki)
Kindly state pKi for each of the entries shown.
Scale note: pKi = -log10(concentration in M).

I'd like to know its pKi. The compound in question is CS(=O)(=O)CC[C@H](NS(=O)(=O)c1ccc2ccccc2c1)C(=O)N1CCC[C@H]1C(=O)N[C@H](C=O)CCCNC(=N)N [Example 24] 9.87

Would you kindly repeat that for CCCC(CCC)C(=O)N[C@@H](CCS(C)(=O)=O)C(=O)N1CCC[C@H]1C(=O)N[C@H](C=O)CCCNC(=N)N [Example 33] ? 8.40

Would you kindly repeat that for CS(=O)(=O)CC[C@H](NS(=O)(=O)Cc1ccccc1)C(=O)N1CCC[C@H]1C(=O)N[C@H](C=O)CCCNC(=N)N [Example 27] ? 8.97

* * *

pIC50 data for Purified human plasmin (Homo sapiens, UniProt P00747) follow.
Scale note: pIC50 = -log10(concentration in M).

Look up pIC50 with Purified human plasmin (Homo sapiens, UniProt P00747) for this compound: CS(=O)(=O)C[C@H](NS(=O)(=O)c1cccc2ccccc12)C(=O)N1CCC[C@H]1C(=O)N[C@H](C=O)CCCNC(=N)N [Example 49] 6.60

Would you kindly repeat that for CS(=O)(=O)CC[C@H](NS(=O)(=O)c1ccc2ccccc2c1)C(=O)N1CCC[C@H]1C(=O)N[C@H](C=O)CCCNC(=N)N [Example 24] ? 7.46

Would you kindly repeat that for CS(=O)(=O)CC[C@H](NS(=O)(=O)NC1CCCCC1)C(=O)N1CCC[C@H]1C(=O)N[C@H](C=O)CCCNC(=N)N [ChxNH--SO2 --Met[S(O2)]--Pro--Arg-al] ? 5.59

Would you kindly repeat that for CCCC(CCC)C(=O)N[C@@H](CCS(C)(=O)=O)C(=O)N1CCC[C@H]1C(=O)N[C@H](C=O)CCCNC(=N)N [Example 33] ? 6.30

Would you kindly repeat that for CC1(C)[C@@H]2CC[C@@]1(CS(=O)(=O)N[C@@H](CCS(C)(=O)=O)C(=O)N1CCC[C@H]1C(=O)N[C@H](C=O)CCCNC(=N)N)C(=O)C2 [d-Camphor--SO2 --Met[S(O2)]--Pro--Arg-al] ? 7.52

Would you kindly repeat that for CS(=O)(=O)CC[C@H](NS(=O)(=O)CC1CCCCC1)C(=O)N1CCC[C@H]1C(=O)N[C@H](C=O)CCCNC(=N)N [Example 18] ? 7.52

* * *

Kindly state pIC50 for each of the entries shown.
target: Purified human alpha-thrombin (Homo sapiens, UniProt P00734)
Scale note: pIC50 = -log10(concentration in M).

Look up pIC50 with Purified human alpha-thrombin (Homo sapiens, UniProt P00734) for this compound: CS(=O)(=O)CC[C@H](NS(=O)(=O)c1ccc2ccccc2c1)C(=O)N1CCC[C@H]1C(=O)N[C@H](C=O)CCCNC(=N)N 9.24

Would you kindly repeat that for N=C(N)NCCC[C@@H](C=O)NC(=O)[C@@H]1CCCN1C(=O)[C@H](CSCC(=O)O)NS(=O)(=O)Cc1ccccc1 ? 7.89

Would you kindly repeat that for CS(=O)(=O)CC[C@H](NS(=O)(=O)Cc1ccccc1)C(=O)N1CCC[C@H]1C(=O)N[C@H](C=O)CCCNC(=N)N ? 9.00

Would you kindly repeat that for COC(=O)c1ccccc1S(=O)(=O)N[C@@H](CCS(C)(=O)=O)C(=O)N1CCC[C@H]1C(=O)N[C@H](C=O)CCCNC(=N)N [2-CMPhSO2 --Met[S(O2)]--Pro--Arg-al] ? 9.09

Would you kindly repeat that for CS(=O)(=O)CC[C@H](NS(=O)(=O)c1cccc2ccccc12)C(=O)N1CCC[C@H]1C(=O)N[C@H](C=O)CCCNC(=N)N ? 9.11

Would you kindly repeat that for CCCC(CCC)C(=O)N[C@@H](CS(=O)(=O)CC(=O)O)C(=O)N1CCC[C@H]1C(=O)N[C@H](C=O)CCCNC(=N)N ? 8.80

Would you kindly repeat that for CCCCS(=O)(=O)N[C@@H](CS(=O)(=O)CC(=O)O)C(=O)N1CCC[C@H]1C(=O)N[C@H](C=O)CCCNC(=N)N ? 8.52
